biological target: human KHK-C (Homo sapiens (Human)); test: KHK Biochemical Assay (IC50), ADP-Glo, KHK-C; settings: average of at least two separate assays
Sequence (P50053 whole entry): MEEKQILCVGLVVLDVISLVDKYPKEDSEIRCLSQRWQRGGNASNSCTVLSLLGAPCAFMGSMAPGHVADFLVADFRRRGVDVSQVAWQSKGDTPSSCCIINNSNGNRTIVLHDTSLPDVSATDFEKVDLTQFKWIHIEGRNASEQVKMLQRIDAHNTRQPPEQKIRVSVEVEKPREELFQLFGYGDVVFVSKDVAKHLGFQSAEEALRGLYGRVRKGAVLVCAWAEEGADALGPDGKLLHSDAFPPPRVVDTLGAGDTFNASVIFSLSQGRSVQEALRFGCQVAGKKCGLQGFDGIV
measurement.name: IC50 (nM)

Sample records with IC50:
INSERT INTO measurements (compound, observed_measurement) VALUES
  ('C[C@H]1[C@H](O)CN1c1nc(-c2ccc(C3(C#N)CNC3)cc2)c2c(n1)C(F)(F)CC2 [Example 777]', 1.8),
  ('C[C@H]1[C@H](O)CN1c1nc(-c2ccc3c(c2)OCC[C@@H]3NS(C)(=O)=O)c2c(n1)C(F)(F)CC2 (single isomer, unassigned) [Example 787]', 1.1),
  ('CN=S(C)(=O)c1cccc(-c2nc(N3C[C@@H](O)[C@@H]3C)nc3c2CCC3(F)F)c1 (some centres unmarked) [Example 508]', 61.2),
  ('CCN1C(=O)N[C@]2(COc3cc(-c4nc(N5C[C@@H](O)[C@@H]5C)nc5c4CCC5(F)F)ccc32)C1=O (single isomer, unassigned) [Example 697]', 0.1),
  ('C[C@H]1CCN1c1nc2c(c(-c3cnc(C4(N)COC4)cn3)n1)CCC2 [Example 507]', 73.6);

I = C[C@H]1[C@H](O)CN1c1nc(-c2ccc3c(c2)CCNC32COC2)c2c(n1)C(F)(F)CC2 [Example 513]
II = C[C@H]1[C@H](O)CN1c1nc(-c2cccc([C@H]3CCS(=O)(=O)N3)c2)c2c(n1)C(F)(F)CC2 [Example 617]
III = C[C@H]1[C@H](O)CN1c1nc(-c2cccc(S(=N)(=O)C(F)F)c2)c2c(n1)C(F)(F)CC2 (some centres unmarked) [Example 603]
IV = C[C@H]1[C@H](O)CN1c1nc(-c2ccc([C@@H](N)CC#N)cc2)c2c(n1)C(F)(F)CC2 (single isomer, unassigned) [Example 779]
Task: Sort the compounds on IC50; start with the lowest figure. Respond with the label ranking, as requested.
Output: I, II, IV, III
(I: 1.4 nM, II: 3.5 nM, IV: 7.1 nM, III: 25.5 nM)

Hello, the source for this data is patent US12410160B2, in case you need it.
